FYI, the data here is from PubChem BioAssay.

Collected GFP response vs DMSO values appear next to each entry.
Assay: RPL19A-GFP modulators, yeast TOR pathway, confirmation, cell-based, S. cerevisiae, flow cytometry, cherry picks, mother/daughter gates (AID 2270)
Conditions: S. cerevisiae RPL19A-GFP strain, 3 h, at 10 µM, hits give low values, 100 = same GFP as DMSO wells
quantity_kind: GFP response vs DMSO (%)

| molecule | observed |
| --- | --- |
| COc1cc(NC(=O)c2ccc(Br)cc2)ccc1NC(=O)c1cc2ccccc2o1 | 99.9 |
| O=S(=O)(c1ccc(Cl)cc1)c1ccccn1 | 96.2 |
| CCOC(=O)c1cnn(-c2cc(C)nc3c(-c4ccccc4)cnn23)c1N | 96.7 |
| N=c1n(CCN2CCCCC2)c2ccccc2n1CC(=O)c1ccc(Cl)c(Cl)c1 | 99.5 |
| Cc1cc(NC(=O)c2cncc(Br)c2)ccc1NC(=O)c1cc2ccccc2o1 | 102 |
| COC(=O)NC1CCC(CC2CCC(NC(=O)OC)CC2)CC1 (stereo unspecified) | 99 |
